- System: Schistosoma mansoni schistosomula (NMRI)
- testName: phenotypic severity score (0-4); higher = more antischistosomal effect, active = 2 or more
- appliedConditions: 48 h; 10 µM
Overview of recorded phenotypic severity score for various molecules
valueKind: phenotypic severity score

# molecule, testResult
records = [
    ("Nc1nc2ccc(-c3cncc(Oc4ccc(F)cc4)c3)cc2[nH]1", 1),
    ("O=C(c1ccc(NCCO)cc1)C1C[C@H]1c1ccc(Cl)cc1 (stereo not given in full)", 0),
    ("NC(CC(=O)c1ccc(Cl)cc1Cl)C(Cl)(Cl)Cl (stereo not given)", 0),
    ("Nc1nccc2ccc(Oc3ccncc3)cc12", 0),
    ("Cc1cc(C)cc(COc2ccc3c(C)c(CCC(=O)O)c(=O)oc3c2C)c1", 1),
]

###

- Tested on: Schistosoma mansoni schistosomula (Liberian)
- testName: drug effect (1 - score/DMSO control score) (fraction); higher = more antischistosomal effect, active = 0.5 or more; extreme values may be limits of the assay
- appliedConditions: 24 h; 10 µM
Possible outcomes: 1 for active, -1 for inactive

# compound, discreteLabel
data = [
    ("FC(F)(F)c1cc(NCCc2ccccc2)nc(-c2ccccn2)n1", -1),
    ("Cc1cnc(N2CCN[C@@H](Cc3ccccc3)C2)nc1Oc1ccc(-n2ccnc2)cc1", -1),
    ("Brc1cncc(-c2cc(NCCCn3ccnc3)nc(-c3ccccc3)n2)c1", -1),
    ("CC1CS(=O)(=O)CCN1/N=C/c1ccc([N+](=O)[O-])o1 (stereo not drawn)", -1),
    ("Cc1cc(Nc2ccncc2)n2nc(C)c(-c3ccccc3Cl)c2n1", -1),
    ("Cc1nn(C(=O)Nc2cccc(C(F)(F)F)c2)c(C)c1Sc1ncccn1", -1),
    ("FC(F)(F)c1nnc2ccc(Cl)nn12", -1),
    ("O=C(N[C@H](Cc1ccccc1)C(=O)Nc1ccccc1N1CCOCC1)c1cccs1", -1),
    ("CC(=O)NCC1CN(c2ccc(-c3ccc(CNCc4cn[nH]n4)cc3)c(F)c2)C(=O)O1 (stereo not drawn)", -1),
    ("O=C(Nc1nc(-c2ccccn2)cs1)c1cncn1-c1ccccc1", -1),
    ("CC(C)C(NC(=O)Cc1cccc2ccccc12)C(=O)Nc1cccc(C#N)c1 (stereo not drawn)", -1),
    ("CCc1ccc([C@@H]2C[C@H](C(F)(F)F)n3ncc(C(=O)NCc4ccc(OC)cc4)c3N2)cc1", -1),
    ("CC(C)(C)OC(=O)N1CCC(Cn2nc(-c3cnc4ccccc4c3)c3c(N)ncnc32)CC1", -1),
    ("CCc1nc2ccccc2n1CC(O)COc1cc(C)ccc1Cl (stereo not drawn)", -1),
    ("COc1ccc(Cn2cnc3c(-c4ccco4)nc(Cl)nc32)cc1", -1),
    ("COc1ccc(-c2cnc3ccc(N4CCCC4)nn23)cc1OC", 1),
    ("Cc1cc(C)c2cc(C(=O)NC3CCCCCCC3)[nH]c2c1", -1),
    ("NC(=O)c1cc(Br)ccc1OCCOc1ccccc1", -1),
]

###

- Test system: Schistosoma mansoni schistosomula (Liberian)
- testName: drug effect (1 - score/DMSO control score) (fraction); higher = more antischistosomal effect, active = 0.5 or more; extreme values may be limits of the assay
- appliedConditions: 72 h; 10 µM
Outcomes: true (1) for active, false (0) for inactive

# molecule, measuredOn, discreteLabel
measured = [
    ("CNC(=O)C1Cc2ccccc2N1C(=O)Cc1ccc(F)cc1 (centres undefined)", "Schistosoma mansoni schistosomula (Liberian)", "false (0)"),
    ("Oc1c(I)cc(I)c2cccnc12", "Schistosoma mansoni schistosomula (Liberian)", "false (0)"),
    ("NCC(=O)N1CCn2c(nc(-c3ccccc3)c2Nc2ccc3c(c2)OCO3)C1", "Schistosoma mansoni schistosomula (Liberian)", "true (1)"),
    ("C[C@H]1c2cccc(O)c2C(=O)C2=C(O)[C@]3(O)C(=O)C(C(N)=O)=C(O)[C@@H](N(C)C)[C@@H]3[C@@H](O)[C@@H]21", "Schistosoma mansoni schistosomula (Liberian)", "false (0)"),
    ("C[C@H](C(N)=O)N1CCCC[C@@H]1c1ccc(OCc2cccc(F)c2)cc1", "Schistosoma mansoni schistosomula (Liberian)", "true (1)"),
    ("FC(F)(F)c1nnc2ccc(Cl)nn12", "Schistosoma mansoni schistosomula (Liberian)", "false (0)"),
    ("Cc1cc(C)c2cc(C(=O)NC3CCCCCCC3)[nH]c2c1", "Schistosoma mansoni schistosomula (Liberian)", "false (0)"),
    ("Cc1ccc(Oc2ccc(NC(=O)CNc3ccccc3N3CCCC3=O)cc2)cc1", "Schistosoma mansoni schistosomula (Liberian)", "true (1)"),
    ("C[C@H](C(N)=O)N1CCCC[C@H]1c1ccc(OCc2cccc(F)c2)cc1", "Schistosoma mansoni schistosomula (Liberian)", "false (0)"),
    ("COC(=O)c1c(NC(=O)c2c(F)c(F)c(F)c(F)c2F)sc2c1CCCCC2", "Schistosoma mansoni schistosomula (Liberian)", "true (1)"),
    ("CS(=O)(=O)N1CCC(Cn2nc(Cc3cccc4ccccc34)c3c(N)ncnc32)CC1", "Schistosoma mansoni schistosomula (Liberian)", "true (1)"),
    ("Cc1cc(C(=O)Nc2ccc(-c3ccccc3)cc2)no1", "Schistosoma mansoni schistosomula (Liberian)", "false (0)"),
    ("CN(C(=O)c1cc2c(-c3cncnc3)cccc2[nH]1)c1ccccc1", "Schistosoma mansoni schistosomula (Liberian)", "false (0)"),
    ("CC[P](CC)(CC)=[Au][S][C@H]1O[C@@H](COC(C)=O)[C@H](OC(C)=O)[C@@H](OC(C)=O)[C@@H]1OC(C)=O", "Schistosoma mansoni schistosomula (Liberian)", "true (1)"),
    ("O=C(Nc1ccc(C(F)(F)F)c(C(F)(F)F)c1)c1cc(Cl)ccc1O", "Schistosoma mansoni schistosomula (Liberian)", "true (1)"),
    ("Cc1ccc(-c2nc(CN(Cc3ccccn3)C(C)C)cs2)o1", "Schistosoma mansoni schistosomula (Liberian)", "false (0)"),
    ("c1coc(CNc2nc(N3CCCCC3)nc3ccccc23)c1", "Schistosoma mansoni schistosomula (Liberian)", "true (1)"),
    ("O=C([C@@H](c1ccc(Cl)cc1)c1cccnc1)N1CCN(c2ccc(C(F)(F)F)cc2)CC1", "Schistosoma mansoni schistosomula (Liberian)", "true (1)"),
    ("CN1CCCN(C(c2ccccc2)c2ccc(Cl)cc2)CC1 (centres undefined)", "Schistosoma mansoni schistosomula (Liberian)", "false (0)"),
    ("Cc1nnc(NC(=O)c2cn(-c3ccccc3)nc2-c2ccccc2C)o1", "Schistosoma mansoni schistosomula (Liberian)", "false (0)"),
    ("COc1ccc(C2(C(=O)Nc3ccc(Br)cc3)CCCC2)cc1", "Schistosoma mansoni schistosomula (Liberian)", "true (1)"),
    ("CCOc1ccc(-c2nc(NC(=O)CS(=O)(=O)c3ccccc3)sc2C)cc1", "Schistosoma mansoni schistosomula (Liberian)", "false (0)"),
    ("Clc1ccc(CN2CCN(C3=NCCN3)CC2)cc1Cl", "Schistosoma mansoni schistosomula (Liberian)", "false (0)"),
    ("CN1CCN(S(=O)(=O)c2ccc(-c3ccc4c(Nc5ncc(Cl)cn5)ccnc4c3)cc2)CC1", "Schistosoma mansoni schistosomula (Liberian)", "true (1)"),
    ("COc1ccc(OC(C)C(=O)Nc2ccc(Cl)cc2C)cc1 (centres undefined)", "Schistosoma mansoni schistosomula (Liberian)", "false (0)"),
    ("Cc1cc(C)cc(COc2ccc3c(C)c(CCC(=O)O)c(=O)oc3c2C)c1", "Schistosoma mansoni schistosomula (Liberian)", "false (0)"),
    ("CCCS(=O)(=O)N1CCC(CO)(Cc2ccccc2C(F)(F)F)CC1", "Schistosoma mansoni schistosomula (Liberian)", "true (1)"),
    ("FC(F)(F)c1cnc(Sc2nnc(-c3ccncc3)o2)c(Cl)c1", "Schistosoma mansoni schistosomula (Liberian)", "true (1)"),
    ("CC(=O)NCC1CN(c2ccc(-c3ccc(CNCc4cn[nH]n4)cc3)c(F)c2)C(=O)O1 (centres undefined)", "Schistosoma mansoni schistosomula (Liberian)", "false (0)"),
]
